- measurement conditions: in isopropanol, 288.15 K
readout name: solubility (mole fraction)

Supply recorded solubility (mole fraction) for "C=C1CCN([C@H](C)[C@](O)(Cn2cncn2)c2ccc(F)cc2F)CC1" here.
0.0849

* * *

- measurement conditions: in acetone, 308.15 K
readout name: solubility (mole fraction)
API doc: respond with a numeric literal and nothing else, no unit.

Read the entry "C=C1CCN([C@H](C)[C@](O)(Cn2cncn2)c2ccc(F)cc2F)CC1" and write its reported solubility (mole fraction).
0.321

* * *

- measurement conditions: in THF, 293.15 K
readout name: solubility (mole fraction)

Please supply the value of reported solubility (mole fraction) for the item "C=C1CCN([C@H](C)[C@](O)(Cn2cncn2)c2ccc(F)cc2F)CC1"
0.335

* * *

- measurement conditions: in acetonitrile, 303.15 K
readout name: solubility (mole fraction)

Tell me measured solubility (mole fraction) for "C=C1CCN([C@H](C)[C@](O)(Cn2cncn2)c2ccc(F)cc2F)CC1" please.
0.168

* * *

- measurement conditions: in n-butanol, 303.15 K
readout name: solubility (mole fraction)

Specify reported solubility (mole fraction) for the compound shown: "C=C1CCN([C@H](C)[C@](O)(Cn2cncn2)c2ccc(F)cc2F)CC1"
0.185

* * *

- measurement conditions: in n-propanol, 298.15 K
readout name: solubility (mole fraction)
Keep it simple and answer with nothing but the number.

Look up and report measured solubility (mole fraction) for this entry: "C=C1CCN([C@H](C)[C@](O)(Cn2cncn2)c2ccc(F)cc2F)CC1"
0.164

* * *

- measurement conditions: in water, 298.15 K
readout name: solubility (mole fraction)
Enter the number alone.

Please look at this compound and report its solubility (mole fraction): "C=C1CCN([C@H](C)[C@](O)(Cn2cncn2)c2ccc(F)cc2F)CC1"
1.77e-06

* * *

- measurement conditions: in THF, 298.15 K
readout name: solubility (mole fraction)
In your answer, state the number alone without any accompanying words.

Give recorded solubility (mole fraction). "C=C1CCN([C@H](C)[C@](O)(Cn2cncn2)c2ccc(F)cc2F)CC1"
0.351

* * *

- measurement conditions: in methanol, 308.15 K
readout name: solubility (mole fraction)
Please give the numeric answer without any surrounding text.

State its solubility (mole fraction): "C=C1CCN([C@H](C)[C@](O)(Cn2cncn2)c2ccc(F)cc2F)CC1"
0.259

* * *

- measurement conditions: in water, 308.15 K
readout name: solubility (mole fraction)

Using known records, supply solubility (mole fraction) for "C=C1CCN([C@H](C)[C@](O)(Cn2cncn2)c2ccc(F)cc2F)CC1"
2.91e-06

* * *

- measurement conditions: in dichloromethane, 298.15 K
readout name: solubility (mole fraction)
Give a plain numeric answer without units written out.

Given "C=C1CCN([C@H](C)[C@](O)(Cn2cncn2)c2ccc(F)cc2F)CC1" , respond with its solubility (mole fraction).
0.358

* * *

- measurement conditions: in ethyl acetate, 308.15 K
readout name: solubility (mole fraction)
Answer with the value's number alone.

Hello, please tell me recorded solubility (mole fraction) for this one: "C=C1CCN([C@H](C)[C@](O)(Cn2cncn2)c2ccc(F)cc2F)CC1"
0.321

* * *

- measurement conditions: in n-butanol, 308.15 K
readout name: solubility (mole fraction)

Fill in solubility (mole fraction) for record "C=C1CCN([C@H](C)[C@](O)(Cn2cncn2)c2ccc(F)cc2F)CC1"
0.218

* * *

- measurement conditions: in THF, 303.15 K
readout name: solubility (mole fraction)
Lab note: record the figure alone, no unit after it.

Retrieve solubility (mole fraction) measured for "C=C1CCN([C@H](C)[C@](O)(Cn2cncn2)c2ccc(F)cc2F)CC1" and print it.
0.367

* * *

- measurement conditions: in acetonitrile, 288.15 K
readout name: solubility (mole fraction)
Give only the figure.

For the molecule "C=C1CCN([C@H](C)[C@](O)(Cn2cncn2)c2ccc(F)cc2F)CC1" , report solubility (mole fraction).
0.0874

* * *

- measurement conditions: in PEG-400, 298.15 K
readout name: solubility (mole fraction)
Please reply with the value in numeric form only.

Provide one value: measured solubility (mole fraction) of "C=C1CCN([C@H](C)[C@](O)(Cn2cncn2)c2ccc(F)cc2F)CC1"
0.194

* * *

- measurement conditions: in isopropanol, 293.15 K
readout name: solubility (mole fraction)
Returns: the value as a bare number; no unit string appended.

Provide only the value of recorded solubility (mole fraction) for "C=C1CCN([C@H](C)[C@](O)(Cn2cncn2)c2ccc(F)cc2F)CC1"
0.105

* * *

- measurement conditions: in DMF, 303.15 K
readout name: solubility (mole fraction)
Please give only the number in your answer, with no unit.

Indicate its recorded solubility (mole fraction); the compound in question is "C=C1CCN([C@H](C)[C@](O)(Cn2cncn2)c2ccc(F)cc2F)CC1"
0.334

* * *

- measurement conditions: in THF, 308.15 K
readout name: solubility (mole fraction)
Write the number on its own, no unit after it.

Answer with reported solubility (mole fraction) of "C=C1CCN([C@H](C)[C@](O)(Cn2cncn2)c2ccc(F)cc2F)CC1"
0.382

* * *

- measurement conditions: in ethanol, 308.15 K
readout name: solubility (mole fraction)
Would you mind answering with just the numeric figure?

Supply recorded solubility (mole fraction) for "C=C1CCN([C@H](C)[C@](O)(Cn2cncn2)c2ccc(F)cc2F)CC1" here.
0.242

* * *

- measurement conditions: in methanol, 298.15 K
readout name: solubility (mole fraction)
Could you keep your reply to the number by itself?

Input "C=C1CCN([C@H](C)[C@](O)(Cn2cncn2)c2ccc(F)cc2F)CC1" , output reported solubility (mole fraction).
0.214

* * *

- measurement conditions: in n-propanol, 303.15 K
readout name: solubility (mole fraction)
Form field (numeric): enter value without unit.

Give the value of solubility (mole fraction) reported for the following: "C=C1CCN([C@H](C)[C@](O)(Cn2cncn2)c2ccc(F)cc2F)CC1"
0.191

* * *

- measurement conditions: in propylene glycol, 288.15 K
readout name: solubility (mole fraction)

Report solubility (mole fraction), nothing else, for this compound: "C=C1CCN([C@H](C)[C@](O)(Cn2cncn2)c2ccc(F)cc2F)CC1"
0.0278

* * *

- measurement conditions: in dichloromethane, 288.15 K
readout name: solubility (mole fraction)
Answer with a bare number; do not write a unit.

Note down solubility (mole fraction) recorded for "C=C1CCN([C@H](C)[C@](O)(Cn2cncn2)c2ccc(F)cc2F)CC1"
0.321

* * *

- measurement conditions: in propylene glycol, 293.15 K
readout name: solubility (mole fraction)
Could you keep your reply to the number by itself?

Give the value of solubility (mole fraction) reported for the following: "C=C1CCN([C@H](C)[C@](O)(Cn2cncn2)c2ccc(F)cc2F)CC1"
0.031

* * *

- measurement conditions: in PEG-400, 308.15 K
readout name: solubility (mole fraction)

Complete the entry with solubility (mole fraction) for "C=C1CCN([C@H](C)[C@](O)(Cn2cncn2)c2ccc(F)cc2F)CC1"
0.219

* * *

- measurement conditions: in ethyl acetate, 303.15 K
readout name: solubility (mole fraction)

Look up and report measured solubility (mole fraction) for this entry: "C=C1CCN([C@H](C)[C@](O)(Cn2cncn2)c2ccc(F)cc2F)CC1"
0.297

* * *

- measurement conditions: in water, 288.15 K
readout name: solubility (mole fraction)

Using known records, supply solubility (mole fraction) for "C=C1CCN([C@H](C)[C@](O)(Cn2cncn2)c2ccc(F)cc2F)CC1"
1.08e-06

* * *

- measurement conditions: in n-butanol, 293.15 K
readout name: solubility (mole fraction)
A bare number is all that is needed in reply.

Report solubility (mole fraction) for "C=C1CCN([C@H](C)[C@](O)(Cn2cncn2)c2ccc(F)cc2F)CC1"
0.135

* * *

- measurement conditions: in transcutol, 288.15 K
readout name: solubility (mole fraction)
Note: the reply should be a number with no unit written.

Specify measured solubility (mole fraction) for "C=C1CCN([C@H](C)[C@](O)(Cn2cncn2)c2ccc(F)cc2F)CC1" .
0.218

* * *

- measurement conditions: in PEG-400, 303.15 K
readout name: solubility (mole fraction)
// keep it numeric: no unit symbol after the value

Give the value of solubility (mole fraction) reported for the following: "C=C1CCN([C@H](C)[C@](O)(Cn2cncn2)c2ccc(F)cc2F)CC1"
0.206

* * *

- measurement conditions: in dichloromethane, 308.15 K
readout name: solubility (mole fraction)
Returns: the value as a bare number; no unit string appended.

Please report the measured solubility (mole fraction) for "C=C1CCN([C@H](C)[C@](O)(Cn2cncn2)c2ccc(F)cc2F)CC1"
0.4

* * *

- measurement conditions: in acetone, 288.15 K
readout name: solubility (mole fraction)

Please supply the value of reported solubility (mole fraction) for the item "C=C1CCN([C@H](C)[C@](O)(Cn2cncn2)c2ccc(F)cc2F)CC1"
0.243

* * *

- measurement conditions: in acetone, 293.15 K
readout name: solubility (mole fraction)
# print the numeric value only

Look up and state reported solubility (mole fraction) for "C=C1CCN([C@H](C)[C@](O)(Cn2cncn2)c2ccc(F)cc2F)CC1"
0.261

* * *

- measurement conditions: in ethyl acetate, 298.15 K
readout name: solubility (mole fraction)
API note: the answer field is a bare number with no unit suffix.

Fill in solubility (mole fraction) for record "C=C1CCN([C@H](C)[C@](O)(Cn2cncn2)c2ccc(F)cc2F)CC1"
0.272
